The measured values listed here are drawn from patent US20250120932A1.

# experiment.notes: Pharmacokinetic study in cynomolgus monkeys after oral (nasogastric) gavage, sublingual and intravenous administration
# Format: in vivo
# run.conditions: both sexes, cynomolgus monkey, plasma, oral, 30 mg/kg, Plasma Bumetanide Dibenzylamide concentration, Median, monkey, NG 30 mg/kg, First Formulation (Form 1), 0.00 h, N=4
assay.endpoint: concentration at 0 h (ng/mL)

                                   compound  unit_string  observed
0  CCCCNc1cc(C(=O)N(Cc2ccccc2)Cc2ccccc2)cc(S(N)(=O)=O)c1Oc1ccccc1 [Bumetanide Dibenzylamide]        ng/mL         0

----------
# experiment.notes: Pharmacokinetic study in cynomolgus monkeys after oral (nasogastric) gavage, sublingual and intravenous administration
# Assay type: in vivo
# run.conditions: both sexes, cynomolgus monkey, plasma, oral, 30 mg/kg, Plasma Bumetanide Dibenzylamide concentration, monkey, NG 30 mg/kg, Second Formulation (Form 3), 8.00 h, individual animals
assay.endpoint: concentration at 8 h (ng/mL)

>>> df
                                   molecule  unit_string  observed
0  CCCCNc1cc(C(=O)N(Cc2ccccc2)Cc2ccccc2)cc(S(N)(=O)=O)c1Oc1ccccc1 [Bumetanide Dibenzylamide]        ng/mL       442
